From: ChEMBL document CHEMBL3792273

Kindly supply the reported selectivity ratio values for the records listed here.
# Test Method Notes: Selectivity index, ratio of IC50 for cytotoxic activity against mouse J774 cells to IC50 for antileishmanial activity against Leishmania amazonensis amastigotes
# Type: toxicity, cell-based
# Measurement Setup: read-out: Ratio IC50

Entry `CC(C)Oc1cc(NC(=N)c2ccccn2)ccc1-c1ccc(-c2ccccc2)o1.CS(=O)(=O)O` , selectivity ratio reported as ≥ 25

The value of selectivity ratio measured for the compound `CS(=O)(=O)O.N=C(Nc1ccc(-c2ccc(-c3ccccc3)o2)c(OC2CCCC2)c1)c1ccccn1` turned out to be ≥ 25

Lab note: `CC(C)Oc1cc(NC(=N)c2ccccn2)ccc1-c1ccc(-c2ccco2)o1.Cl` gave selectivity ratio of ≥ 25
